condition: in methanol, 308.15 K
endpointName: solubility (mole fraction)
Format: numeric value only, no unit, no commentary.

Fill blank: measured solubility (mole fraction) of the compound `O=S(=O)(c1ccc(O)cc1)c1ccccc1O` is ____.
0.0786

====

condition: in 2-butanone, 303.15 K
endpointName: solubility (mole fraction)
Format: numeric value only, no unit, no commentary.

Fill blank: measured solubility (mole fraction) of the compound `O=S(=O)(c1ccc(O)cc1)c1ccccc1O` is ____.
0.122

====

condition: in 1,4-dioxane, 285.65 K
endpointName: solubility (mole fraction)
Format: numeric value only, no unit, no commentary.

Fill blank: measured solubility (mole fraction) of the molecule `O=S(=O)(c1ccc(O)cc1)c1ccccc1O` is ____.
0.0272

====

condition: in n-butanol, 290.65 K
endpointName: solubility (mole fraction)
Format: numeric value only, no unit, no commentary.

Fill blank: measured solubility (mole fraction) of the compound `O=S(=O)(c1ccc(O)cc1)c1ccccc1O` is ____.
0.0634

====

condition: in acetonitrile, 310.65 K
endpointName: solubility (mole fraction)
Format: numeric value only, no unit, no commentary.

Fill blank: measured solubility (mole fraction) of the compound `O=S(=O)(c1ccc(O)cc1)c1ccccc1O` is ____.
0.0271

====

condition: in 1,4-dioxane, 313.15 K
endpointName: solubility (mole fraction)
Format: numeric value only, no unit, no commentary.

Fill blank: measured solubility (mole fraction) of the compound `O=S(=O)(c1ccc(O)cc1)c1ccccc1O` is ____.
0.077

====

condition: in methanol, 290.65 K
endpointName: solubility (mole fraction)
Format: numeric value only, no unit, no commentary.

Fill blank: measured solubility (mole fraction) of the compound `O=S(=O)(c1ccc(O)cc1)c1ccccc1O` is ____.
0.0643

====

condition: in acetone, 298.15 K
endpointName: solubility (mole fraction)

Fill blank: measured solubility (mole fraction) of the compound `O=S(=O)(c1ccc(O)cc1)c1ccccc1O` is ____.
0.127

====

condition: in isopropanol, 290.65 K
endpointName: solubility (mole fraction)
Format: numeric value only, no unit, no commentary.

Fill blank: measured solubility (mole fraction) of the compound `O=S(=O)(c1ccc(O)cc1)c1ccccc1O` is ____.
0.0798

====

condition: in isopropanol, 308.15 K
endpointName: solubility (mole fraction)
Format: numeric value only, no unit, no commentary.

Fill blank: measured solubility (mole fraction) of the compound `O=S(=O)(c1ccc(O)cc1)c1ccccc1O` is ____.
0.104

====

condition: in n-butanol, 293.15 K
endpointName: solubility (mole fraction)

Fill blank: measured solubility (mole fraction) of the molecule `O=S(=O)(c1ccc(O)cc1)c1ccccc1O` is ____.
0.0645

====

condition: in ethanol, 305.65 K
endpointName: solubility (mole fraction)
Format: numeric value only, no unit, no commentary.

Fill blank: measured solubility (mole fraction) of the compound `O=S(=O)(c1ccc(O)cc1)c1ccccc1O` is ____.
0.0872

====

condition: in acetone, 283.15 K
endpointName: solubility (mole fraction)
Format: numeric value only, no unit, no commentary.

Fill blank: measured solubility (mole fraction) of the compound `O=S(=O)(c1ccc(O)cc1)c1ccccc1O` is ____.
0.11

====

condition: in methanol, 278.15 K
endpointName: solubility (mole fraction)
Format: numeric value only, no unit, no commentary.

Fill blank: measured solubility (mole fraction) of the molecule `O=S(=O)(c1ccc(O)cc1)c1ccccc1O` is ____.
0.0569

Source listed as BigSolDB 2.1.
